Values were extracted from ChEMBL document CHEMBL2429819.

Test system: Proteus vulgaris
Experiment: Antibacterial activity against Proteus vulgaris at 100 ug/ml after 24 hrs
Assay type: functional
Conditions: read-out: DIZ
parameter: zone of inhibition at 100 µg/mL (mm)
Supply the numeric figure in mm, leaving out any unit text.

molecule | value
O=C(CC(=O)c1cc(C(=O)CC(=O)c2ccc(Cl)cc2)c(O)cc1O)c1ccc(Cl)cc1 | 11
NC[C@@H]1O[C@H](O[C@H]2[C@@H](O)[C@H](O[C@@H]3[C@@H](O)[C@H](N)C[C@H](N)[C@H]3O[C@H]3O[C@H](CN)[C@@H](O)[C@H](O)[C@H]3N)O[C@@H]2CO)[C@H](N)[C@@H](O)[C@@H]1O | 25.3
Oc1cc(O)c(-c2cc(-c3ccccc3)on2)cc1-c1cc(-c2ccccc2)on1 | 15.2

## Input Given O=C(CC(=O)c1cc(C(=O)CC(=O)c2cccnc2)c(O)cc1O)c1cccnc1 , state its recorded zone of inhibition at 100 µg/mL.
## Output 14.2

## Input What about this compound? O=C(CC(=O)c1cc(C(=O)CC(=O)c2cccs2)c(O)cc1O)c1cccs1
## Output 14.9

## Input What about this compound? Cc1ccc(C(=O)CC(=O)c2cc(C(=O)CC(=O)c3ccc(C)cc3)c(O)cc2O)cc1
## Output 12.6
